Attribution: patent US20230014722A1

Documented EC50 across a set of binders
# TGT: T1, human PD-1 (Sino Biological), coated on plates (human, UniProt Q15116 25-167)
# T1 construct: whole entry named
# PROTOCOL_NOTES: ELISA, plates coated with human PD-1 at 1 µg/ml
Give just the numeric value; nM need not be written.

# BINDER, RECORDED_MEASUREMENT
rows = [
    ("2G4 (antibody, human IgG4, V domains shown) VH: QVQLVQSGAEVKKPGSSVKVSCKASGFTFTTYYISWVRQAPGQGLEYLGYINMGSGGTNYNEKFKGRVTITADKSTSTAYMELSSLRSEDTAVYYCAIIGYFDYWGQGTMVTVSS VL: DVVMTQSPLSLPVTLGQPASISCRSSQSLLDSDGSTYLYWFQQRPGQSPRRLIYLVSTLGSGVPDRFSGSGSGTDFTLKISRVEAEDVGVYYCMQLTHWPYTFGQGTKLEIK", 0.21),
]

Recorded EC50 of 2C2 (antibody, human IgG4, V domains shown) VH: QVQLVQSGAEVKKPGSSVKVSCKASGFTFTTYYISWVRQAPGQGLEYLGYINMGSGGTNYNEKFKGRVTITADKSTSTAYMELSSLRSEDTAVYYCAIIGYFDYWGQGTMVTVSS VL: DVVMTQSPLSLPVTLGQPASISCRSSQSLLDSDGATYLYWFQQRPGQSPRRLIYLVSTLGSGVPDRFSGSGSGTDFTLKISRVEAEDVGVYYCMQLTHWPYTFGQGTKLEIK , please.
0.12

Same lookup for 2E5 (antibody, human IgG4, V domains shown) VH: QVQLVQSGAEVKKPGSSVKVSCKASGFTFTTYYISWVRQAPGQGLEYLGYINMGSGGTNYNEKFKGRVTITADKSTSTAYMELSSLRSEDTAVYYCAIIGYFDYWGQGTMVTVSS VL: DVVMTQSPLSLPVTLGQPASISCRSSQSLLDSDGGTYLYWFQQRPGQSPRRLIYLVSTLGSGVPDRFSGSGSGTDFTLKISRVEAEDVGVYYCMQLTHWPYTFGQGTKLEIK , please.
0.18

Same lookup for 1H6 (antibody, human IgG4, V domains shown) VH: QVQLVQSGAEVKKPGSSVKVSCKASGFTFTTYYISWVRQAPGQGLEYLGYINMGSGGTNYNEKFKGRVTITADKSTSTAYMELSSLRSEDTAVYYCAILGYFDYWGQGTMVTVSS VL: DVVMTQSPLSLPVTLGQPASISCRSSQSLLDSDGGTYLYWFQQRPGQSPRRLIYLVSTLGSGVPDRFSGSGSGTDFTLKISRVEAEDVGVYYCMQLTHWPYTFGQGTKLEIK , please.
0.2
